System: SK-MEL-2 melanoma
Assay: NCI-60 one-dose screen, 48 h
Details: 10 µM unless noted
Compounds without any hit were thinned out: in the full panel of roughly 83,000, 20% have a hit. Activity calls are given as the source filed them. The calls were made as follows: active = growth percent below 10; inactive = the rest.
API: response.call in 1 (yes) (active), 0 (no) (inactive)

Examples with answers:
CS(=O)(=O)c1ccc(C(=O)N/N=C/c2ccc3c(c2)OCO3)cc1 :: 0 (no)
COc1cc(/C=C/c2cc(/C=C/c3ccc(O)c(OC)c3)n(C(=O)c3ccccc3Br)n2)ccc1O :: 1 (yes)
N#CCCn1cnc2c(N)ncnc21 :: 0 (no)
CC(=O)CC(c1ccc([N+](=O)[O-])cc1)c1c(O)c2ccccc2oc1=O (stereo not given) :: 0 (no)

Prompt: I'd appreciate the recorded outcome for CCN1C(=O)N(CC)C2C1NN=c1s/c(=C\c3ccco3)c(=O)n12 (stereo not given) from this test.
Completion: 0 (no)
